Assay: Viability qHTS for spleen associated tyrosine kinase inhibitor (SYKi) naive MV4-11 cells (AID 1963823); note: nearly all actives have a fitted effect of over 40% in size
Conditions: MV4-11 AML viability, CellTiter-Glo luminescence, 72 h; series mostly up to 45 µM
Records with an inconclusive call do not appear. Active and inactive are the calls of the source. Calls come from the whole dose curve; as a rule, active = well fitted cell-killing curve with a large enough effect; inconclusive = small, poorly fitted or top-dose-only effect, or effect the other way; inactive = no such curve, though single readings can be large or run the other way.
Possible outcomes: True (active), False (inactive)

Molecule: CCCCCCCC/C=C\CCCCCCCC(=O)NCc1ccc(O)c(OC)c1
Label: False
//
Molecule: Cc1cnc(Nc2ccc(CN3CCOCC3)cc2)nc1Nc1cccc(S(=O)(=O)NC(C)(C)C)c1
Label: True
//
Molecule: Cn1c(=O)c2[nH]cnc2n(C)c1=O
Label: False
//
Molecule: Cc1cccc(C)c1NC(=O)c1cc(S(N)(=O)=O)c(Cl)cc1O
Label: False
//
Molecule: C[C@H](NC(=O)Cc1cc(F)cc(F)c1)C(=O)N[C@H](C(=O)OC(C)(C)C)c1ccccc1
Label: False
//
Molecule: COC(=O)c1ccc(OC)cc1O[C@@H]1O[C@H](CO[C@@H]2OC[C@@H](O)[C@H](O)[C@H]2O)[C@@H](O)[C@H](O)[C@H]1O
Label: False
//
Molecule: CCOC(=O)N1CCN(/[N+]([O-])=N/Oc2ccc([N+](=O)[O-])cc2[N+](=O)[O-])CC1
Label: True
//
Molecule: C=C1C(O)CC2C(C(=O)O)=COC(OC3OC(CO)C(O)C(O)C3OC(=O)/C=C\c3ccc(O)cc3)C12 (centres undefined)
Label: False
//
Molecule: COc1cc(C2Oc3c(OC)cc(CCCO)cc3C2CO)ccc1O (centres undefined)
Label: False
//
Molecule: CN(C)c1ccc2cc(C(=O)N[C@@H](CCCN=C(N)CCl)C(=O)NCc3ccccc3)ccc2c1
Label: True
//
Molecule: CNCCC(Oc1ccc(C(F)(F)F)cc1)c1ccccc1 (centres undefined)
Label: True
//
Molecule: O=C1c2ccccc2-c2nc3nnnn3nc21 (tested in a mixture with another compound)
Label: True
//
Molecule: C[C@H](NC(=O)c1c(N)nn2cccnc12)c1cc2cccc(C#Cc3cnn(C)c3)c2c(=O)n1-c1ccccc1
Label: True
//
Molecule: OC[C@H]1O[C@@H](Oc2cc(O)c3c(c2)O[C@@H](c2ccc(O)cc2)[C@H](O)C3)[C@H](O)[C@@H](O)[C@@H]1O
Label: False
//
Molecule: C=CCN(/C=C1\C(=O)OC(COC)C2(C)C1=C(O)C(=O)C1=C2C(OC(C)=O)CC2(C)C(=O)CCC12)CC=C (centres undefined)
Label: True
//
Molecule: CC(C)(Cc1ccc2ccccc2c1)NC[C@@H](O)COc1cccc(Cl)c1C#N
Label: True
//
Molecule: C#Cc1cnc2[nH]c(=O)n(C(CC)CC)c2n1
Label: False
//
Molecule: COC(=O)C1=C(C)NC(C)=C(C(=O)OC)C1c1ccccc1[N+](=O)[O-]
Label: True
//
Molecule: CCOC(=O)c1ccc(OCCN2C[C@H](O)[C@@H](O)[C@H](O)[C@H]2CO)cc1
Label: False

###

Experiment: Quantitative highthroughput screen to assess conditional lethalithy of SEM cells grown in RPMI1640 with unreated serum (RPMI+s) (AID 1963883); note: nearly all actives have a fitted effect of over 35% in size
Conditions: SEM B-ALL cells, CellTiter-Glo viability, 48 h; series mostly up to 45.8 µM
Inconclusive results are not listed. The source made the active and inactive calls. The call rests on the fitted dose curve; in most records, active means well fitted cell-killing curve with a large enough effect; inconclusive means small, poorly fitted or top-dose-only effect, or effect the other way; inactive means no such curve, though single readings can be large or run the other way.
Outcomes: Yes for active, No for inactive

Molecule: C[C@@]12C[C@@]3(O)O[C@@H](O1)[C@]1(COC(=O)c4ccccc4)[C@@H]3C[C@@]12O[C@@H]1O[C@H](CO)[C@@H](O)[C@H](O)[C@@H]1O
Label: No
--
Molecule: O=C(/C=C\n1cnc(-c2cc(C(F)(F)F)cc(C(F)(F)F)c2)n1)NNc1cnccn1
Label: Yes
--
Molecule: Cc1cc2c(cc1C1(c3ccc(C(=O)O)cn3)CC1)C(C)(C)CCC2(C)C
Label: No
--
Molecule: COc1nccc(-c2c(-c3ccc(F)cc3)ncn2C2CCC(O)CC2)n1 (stereo not given)
Label: Yes
--
Molecule: C[C@@H]1CCN(C(=O)CC#N)C[C@H]1N(C)c1ncnc2[nH]ccc12
Label: No
--
Molecule: O=c1ccn([C@@H]2O[C@H](CO)[C@H](O)[C@@H]2F)c(=O)[nH]1
Label: No
--
Molecule: Nc1nc(Nc2ccc(S(N)(=O)=O)cc2)nn1C(=O)c1c(F)cccc1F
Label: Yes
--
Molecule: CNC1[C@H](O)C(O[C@@H]2C(O)C(O[C@H]3O[C@H]([C@@H](C)NC)CC[C@H]3N)[C@@H](N)C[C@H]2N)OC[C@]1(C)O (stereo not given in full)
Label: No
--
Molecule: NC(=O)c1ccc(-c2nc(-c3ccc4c(c3)OCCO4)c(-c3ccccn3)[nH]2)cc1
Label: No
--
Molecule: COc1cc2c(Nc3ccc(Cl)c(Cl)c3F)ncnc2cc1OCC1C[C@@H]2CN(C)C[C@@H]2C1 (stereo not given in full)
Label: Yes
--
Molecule: CC(=O)N[C@@H]1[C@H](O[C@@H]2c3ccc(c(Cl)c3)Oc3cc4cc(c3O[C@H]3O[C@H](CO)[C@@H](O)[C@H](O)[C@H]3NC(=O)CCCCCCCC(C)C)Oc3ccc(cc3Cl)C[C@H]3NC(=O)[C@H](N)c5ccc(O)c(c5)Oc5cc(O)cc(c5)[C@H](NC3=O)C(=O)N[C@H]4C(=O)N[C@H]3C(=O)N[C@@H]2C(=O)N[C@@H](C(=O)O)c2cc(O)cc(O[C@H]4O[C@H](CO)[C@@H](O)[C@H](O)[C@H]4O)c2-c2cc3ccc2O)O[C@H](CO)[C@@H](O)[C@@H]1O
Label: No
--
Molecule: O=C1C(c2c(O)[nH]c3ccccc23)=Nc2ccccc21
Label: No
--
Molecule: Cc1nc(-c2ccc(OCC(C)C)c(C#N)c2)sc1C(=O)O
Label: No
--
Molecule: C=CC(=O)Nc1cc(NC(=O)c2ccc(C)c(NC(=O)c3ccno3)c2)cc(C(F)(F)F)c1
Label: No
--
Molecule: C#Cc1cccc(Nc2ncnc3cc(OC)c(OCCCCCCC(=O)NO)cc23)c1
Label: Yes
